This listing pairs molecules with measured logP.
- Experimental details: logP determination by retention times (calibration with alkan-2-ones)
- Experimental parameters: HPLC, reversed-phase C 18, EEC Directive 79/831 Annex V.A8; method *: 40° C., 0.1% aqueous formic acid and acetonitrile, linear gradient 10% to 95% acetonitrile
Marks after values point to notes of the source that are not given here.
Measured parameter: logP

>>> measurement("CNc1nc(C)c(-c2ccnc(Nc3cccc(C(C)=O)c3)n2)s1")
"1.62*"
>>> measurement("CNc1nc(C)c(-c2ccnc(Nc3cc(OC)c(OC)c(OC)c3)n2)s1")
"1.53*"
>>> measurement("COc1cc(Nc2nccc(-c3sc(N(C)C)nc3C(F)(F)F)n2)cc(OC)c1OC")
"3.43*"
>>> measurement("Cc1nc2c(s1)-c1nc(Nc3cccc(O)c3)ncc1CC2")
"1.77*"
>>> measurement("CN(C)c1nc(C(F)(F)F)c(-c2ccnc(Nc3ccccc3)n2)s1")
"3.88*"

---

- Experimental details: logP determination by retention times (calibration with alkan-2-ones)
- Experimental parameters: values marked *: HPLC on reversed-phase C 18, 40° C., mobile phase 0.1% aqueous formic acid and acetonitrile, linear gradient 10% to 95% acetonitrile
Measured parameter: logP

>>> measurement("Cc1nc(N(C)C)sc1-c1ccnc(Nc2ccc(F)cc2)n1")
"1.99*"
>>> measurement("CC(=O)Nc1ccc(Nc2nccc(-c3sc(N(C)C)nc3C)n2)cc1")
"1.33*"
>>> measurement("CN(C)c1nc(C(F)(F)F)c(-c2ccnc(Nc3cccc([N+](=O)[O-])c3)n2)s1")
"3.99*"
>>> measurement("COc1cc(Nc2nccc(-c3sc(N(C)C)nc3C)n2)cc(OC)c1OC")
"1.77*"
>>> measurement("CC(=O)c1ccc(Nc2nccc(-c3sc(N(C)C)nc3C)n2)cc1")
"1.9*"
>>> measurement("CC(=O)Nc1cccc(Nc2nccc(-c3sc(N(C)C)nc3C(F)(F)F)n2)c1")
"2.65*"

---

- Experimental details: logP determination by retention times (calibration with alkan-2-ones)
chromatographic logP: recorded values
Measured parameter: chromatographic logP

>>> measurement("COc1cc(Nc2nccc(-c3sc(N)nc3C)n2)cc(OC)c1OC")
1.51
>>> measurement("CCc1nc(C)c(-c2ccnc(Nc3ccc(NC(=O)OCCOC)cc3)n2)s1")
2.36
>>> measurement("COCCOC(=O)Nc1ccc(Nc2nccc(-c3sc(C(C)C)nc3C)n2)cc1")
2.67

---

- Experimental details: logP determination by retention times (calibration with alkan-2-ones)
- Experimental parameters: logP, * HPLC reversed-phase C18, 40° C., mobile phase 0.1% aqueous formic acid and acetonitrile, linear gradient 10% to 95% acetonitrile
Measured parameter: chromatographic logP

>>> measurement("Cc1nc(NCC2CCCO2)sc1-c1ccnc(Nc2ccc(F)cc2)n1 (stereo not shown)")
2.1
>>> measurement("CCc1nc(C)c(-c2ccnc(Nc3ccc4c(c3)OCO4)n2)s1")
2.77
>>> measurement("COCCCOC(=O)c1ccc(Nc2nccc(-c3sc(COC)nc3C)n2)cc1")
2.63
>>> measurement("COCc1nc(C)c(-c2ccnc(Nc3ccc(F)c(C)c3)n2)s1")
3.14
>>> measurement("COCCNc1nc(C)c(-c2ccnc(Nc3cc(OC)cc(OC)c3)n2)s1")
1.96
>>> measurement("COCCNc1nc(C)c(-c2ccnc(Nc3cccc(OC)c3)n2)s1")
1.86
>>> measurement("Cc1nc(C)c(-c2ccnc(Nc3ccc4c(c3)OCO4)n2)s1")
2.44

---

- Experimental details: logP determination by retention times (calibration with alkan-2-ones)
Item-by-item account of chromatographic logP
Measured parameter: chromatographic logP

>>> measurement("Cc1nc(C2CC2)sc1-c1ccnc(Nc2ccc3c(c2)OCCO3)n1 [Example 220]")
2.91
>>> measurement("Cc1nc(N)sc1-c1ccnc(Nc2cccc(C(F)(F)F)c2)n1 [Example 209]")
1.97
>>> measurement("Cc1nc2c(s1)-c1nc(Nc3cccc([N+](=O)[O-])c3)ncc1CC2 [Example 95]")
2.79
>>> measurement("COc1cc(Nc2nccc(-c3sc(C)nc3C)n2)cc(OC)c1 [Example 406]")
2.64
>>> measurement("Cc1nc(C2CC2)sc1-c1ccnc(Nc2ccccc2)n1 [Example 231]")
3.26
>>> measurement("Cc1nc(C(F)(F)F)c(-c2ccnc(Nc3cccc([N+](=O)[O-])c3)n2)s1 [Example 311]")
3.5
>>> measurement("Cc1nc(C)c(-c2ccnc(Nc3cccc([N+](=O)[O-])c3)n2)s1 [Example 184]")
2.61
>>> measurement("COc1cc(Nc2nccc(-c3sc(C(C)C)nc3C)n2)cc(OC)c1OC [Example 244]")
2.99
>>> measurement("Cc1nc(C(F)(F)F)c(-c2ccnc(Nc3cccc(O)c3)n2)s1 [Example 103]")
2.52
>>> measurement("COc1ccc(OC)c(Nc2nccc(-c3sc(C)nc3C)n2)c1 [Example 391]")
3.03
>>> measurement("CC(=O)c1cccc(Nc2nccc(-c3sc(C)nc3C)n2)c1 [Example 2]")
2.14
>>> measurement("CCc1nc(C)c(-c2ccnc(Nc3ccc(C(=O)O)cc3)n2)s1 [Example 325]")
2.16
>>> measurement("Cc1nc(C(C)C)sc1-c1ccnc(Nc2ccc3c(c2)OCCO3)n1 [Example 389]")
3.16
>>> measurement("Cc1nc(C2CC2)sc1-c1ccnc(Nc2cccc([N+](=O)[O-])c2)n1 [Example 225]")
3.29
>>> measurement("CCc1nc(C)c(-c2ccnc(Nc3ccccc3)n2)s1 [Example 243]")
3.07
>>> measurement("Cc1nc(C2CC2)sc1-c1ccnc(Nc2cccc(C(F)(F)F)c2)n1 [Example 229]")
4.04
>>> measurement("Cc1nc(C(=O)N(C)C)sc1-c1ccnc(Nc2ccccc2)n1 [Example 373]")
2.72

---

- Experimental details: logP determination by retention times (calibration with alkan-2-ones)
- Experimental parameters: logP, * HPLC reversed-phase C18, 40° C., mobile phase 0.1% aqueous formic acid and acetonitrile, linear gradient 10% to 95% acetonitrile
Measured parameter: chromatographic logP

>>> measurement("COCc1nc(C)c(-c2ccnc(Nc3ccc(OC)c(Cl)c3)n2)s1")
2.91
>>> measurement("Cc1nc(C2CC2)sc1-c1ccnc(Nc2cccc(CNC(=O)OC(C)(C)C)c2)n1")
2.87
>>> measurement("CC(=O)Nc1ccc(Nc2nccc(-c3sc(C)nc3C)n2)cc1")
1.62
>>> measurement("CCc1nc(C)c(-c2ccnc(Nc3cccc(NC(C)=O)c3)n2)s1")
2.05
>>> measurement("COCCNc1nc(C)c(-c2ccnc(Nc3ccc(C(C)=O)cc3)n2)s1")
1.72
>>> measurement("COCCNc1nc(C)c(-c2ccnc(Nc3cccc(C(C)=O)c3)n2)s1")
1.69
>>> measurement("COCc1nc(C)c(-c2ccnc(Nc3cc(OC)cc(OC)c3)n2)s1")
2.73
>>> measurement("CCc1nc(C)c(-c2ccnc(Nc3cccnc3)n2)s1")
1.35

---

Entries and their measured logP follow.
- Experimental details: logP determination by retention times (calibration with alkan-2-ones)
- Experimental parameters: * HPLC reversed-phase C18, 40° C., mobile phase 0.1% aqueous formic acid and acetonitrile, linear gradient 10% to 95% acetonitrile
Measured parameter: logP

>>> measurement("Cc1nc(N(C)C)sc1-c1ccnc(Nc2ccccc2)n1")
"1.98*"
>>> measurement("Cc1nc(N(C)C)sc1-c1ccnc(Nc2cccc(N3CCCC3=O)c2)n1")
"1.65*"
>>> measurement("COc1cc(Nc2nccc(-c3sc(N(C)C)nc3C(F)(F)F)n2)cc(OC)c1")
"3.85*"
>>> measurement("Cc1nc(N(C)C)sc1-c1ccnc(Nc2ccc(N3CCCC3=O)cc2)n1")
"1.6*"
>>> measurement("CN(C)c1nc(C(F)(F)F)c(-c2ccnc(Nc3ccc4c(c3)OC(F)(F)C(F)(F)O4)n2)s1")
"5.28*"
>>> measurement("CNc1nc(C)c(-c2ccnc(Nc3cccc(CNC(=O)OC(C)(C)C)c3)n2)s1")
"1.99*"
>>> measurement("CN(C)c1nc(C(F)(F)F)c(-c2ccnc(Nc3ccc(F)cc3)n2)s1")
"3.96*"
>>> measurement("Cc1nc(N(C)C)sc1-c1ccnc(Nc2cccc(Cl)c2)n1")
"2.62*"
>>> measurement("CNc1nc(C)c(-c2ccnc(Nc3cccc(Cl)c3)n2)s1")
"2.03*"
>>> measurement("CN(C)c1nc(C(F)(F)F)c(-c2ccnc(Nc3ccc(O)cc3)n2)s1")
"2.64*"
>>> measurement("CN(C)c1nc(C(F)(F)F)c(-c2ccnc(Nc3cccc(O)c3)n2)s1")
"2.84*"
>>> measurement("CC(=O)c1ccc(Nc2nccc(-c3sc(N(C)C)nc3C(F)(F)F)n2)cc1")
"3.44*"
>>> measurement("CN(C)c1nc(C(F)(F)F)c(-c2ccnc(Nc3ccc4c(c3)OCO4)n2)s1")
"3.63*"
>>> measurement("CC(=O)Nc1cccc(Nc2nccc(-c3sc(N(C)C)nc3C)n2)c1")
"1.42*"
>>> measurement("Cc1cc(Nc2nccc(-c3sc(N(C)C)nc3C(F)(F)F)n2)ccc1F")
"4.43*"
>>> measurement("CN(C)c1nc(C(F)(F)F)c(-c2ccnc(Nc3ccc(N(C)C)c(Cl)c3)n2)s1")
"3.46*"
